Cited source for all entries: ChEMBL document CHEMBL1135708

Parameter inhibition: see the listing below.
- target.entity: Catechol O-methyltransferase (Rattus norvegicus)
- test.description: Percent inhibition of Catechol O-methyltransferase activity in rat liver at dose of 30 mg/kg determined at 6 hr after its administration
- Format: organism-based
- Design: dose 30 mg/kg

- chemical.string: "O=C(Cc1ccccc1C(=O)O)c1cc(O)c(O)c([N+](=O)[O-])c1"
  inhibition, %: 39
- chemical.string: "O=C(Cc1ccc(Cl)cc1)c1cc(O)c(O)c([N+](=O)[O-])c1"
  inhibition, %: 69
- chemical.string: "O=C(Cc1ccc(-c2ccccc2)cc1)c1cc(O)c(O)c([N+](=O)[O-])c1"
  inhibition, %: 78
- chemical.string: "O=C(CC1CCCCC1)c1cc(O)c(O)c([N+](=O)[O-])c1"
  inhibition, %: 72
